Numbers sourced from ChEMBL document CHEMBL1961873.

Molecular target: Protein kinase C theta type (Homo sapiens);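 also: each value is a mean inhibition of PKC-theta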
Conditions: at 1 µM

| Structure Smiles String | Reading Unit | inhibition |
| --- | --- | --- |
| O=C1NC(=O)C(N2CCc3ccccc32)=C1c1ccc(Cl)cc1 | % | 1.93 |
| Cn1cc(C=C2C(=O)Nc3cccnc32)c2ccccc21 | % | 0.22 |
| CCn1c(-c2nonc2N)nc2c(C#CC(C)(C)O)nc(OC[C@@H](N)c3ccccc3)cc21 | % | 52.5 |

----------
Target: Protein kinase C alpha type (Homo sapiens);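 also: each value is the mean percent inhibition of PKC-alpha kinase activity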
Conditions: at 0.1 µM
Observation Type: inhibition

| Compound | Reading |
| --- | --- |
| CS(=O)(=O)CCNCc1nc(-c2ccc3ncnc(Nc4ccc(F)c(Cl)c4)c3c2)cs1 | 0.29% |
| CC1=C(C(=O)Nc2ccc3[nH]ncc3c2)C(c2ccc(F)cc2)NC(=O)N1 (centres undefined) | 0.69% |
| COc1ccccc1Nc1ncc(-c2ccccc2)o1 | 0.95% |
| CCc1cccc(NC(=O)Nc2ccc(Oc3ccc4nc(NC(=O)OC)[nH]c4c3)cc2)c1 | 0.7% |
| Cc1nnc(-c2ccc(C)c(-c3ccc(C(=O)Nc4cccc(C#N)c4)cc3)c2)o1 | 0.5% |
| CCn1c(-c2nonc2N)nc2cncc(C(=O)N3CCNCC3)c21 | 0.92% |
| CCN1CCC(CC(=O)Nc2n[nH]c3nc(-c4cccs4)c(Br)cc23)CC1 | -0.16% |
| CN1CCC(C(=O)Nc2n[nH]c3nnc(-c4ccccc4)cc23)CC1 | 0.67% |
| Nc1nc(-c2ccc3c(c2)C(=Cc2cc(Br)c(O)c(Br)c2)C(=O)N3)cs1 | -0.01% |

----------
// reported inhibition per item
Target: Sphingosine kinase 2 (Homo sapiens) (UniProt Q9NRA0);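 also: values reported as mean percent inhibition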
Sequence (Q9NRA0 whole entry): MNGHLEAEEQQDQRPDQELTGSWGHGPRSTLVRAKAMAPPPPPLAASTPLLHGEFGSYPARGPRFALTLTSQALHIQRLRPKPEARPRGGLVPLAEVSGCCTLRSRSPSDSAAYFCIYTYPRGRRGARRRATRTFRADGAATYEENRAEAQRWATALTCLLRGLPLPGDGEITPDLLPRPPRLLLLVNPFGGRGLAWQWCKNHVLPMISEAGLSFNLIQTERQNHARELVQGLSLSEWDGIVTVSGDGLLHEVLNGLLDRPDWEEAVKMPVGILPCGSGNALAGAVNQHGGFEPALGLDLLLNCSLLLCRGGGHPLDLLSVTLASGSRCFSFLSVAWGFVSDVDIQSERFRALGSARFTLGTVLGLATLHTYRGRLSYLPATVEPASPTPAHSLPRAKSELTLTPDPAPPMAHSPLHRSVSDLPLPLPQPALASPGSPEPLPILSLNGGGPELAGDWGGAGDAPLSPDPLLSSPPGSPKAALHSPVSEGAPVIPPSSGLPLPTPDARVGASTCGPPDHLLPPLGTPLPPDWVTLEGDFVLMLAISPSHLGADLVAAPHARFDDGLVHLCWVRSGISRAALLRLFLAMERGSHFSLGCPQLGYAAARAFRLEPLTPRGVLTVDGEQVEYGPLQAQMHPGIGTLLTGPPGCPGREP
Settings: at 0.1 µM

| Compound | Reading Unit | inhibition |
| --- | --- | --- |
| COc1ccc2cc(-c3c(-c4ccncc4)nc(-c4ccc([S+](C)[O-])cc4)n3C)ccc2c1 (configuration not stated) | % | -1.61 |
| CCCN1CCC=C(c2ccc(Nc3nc(Nc4ccccc4C(N)=O)c4cc[nH]c4n3)c(C)c2)C1 | % | -1.02 |
| CC1=C(C(=O)Nc2ccc3[nH]ncc3c2)C(c2ccc3ccccc3c2)CC(=O)N1 (configuration not stated) | % | 0.52 |
| Cc1cc(O)cc(C)c1/C=C/c1cncc(-c2nn[nH]n2)c1 | % | 1.53 |
| COC(=O)Nc1nc2cc(Oc3ccc(NC(=O)Nc4cccc(C(=O)O)c4)cc3)ccc2[nH]1 | % | 0.52 |
| NCc1ccc(-c2nc(-c3ccc(Cl)c(O)c3)c(-c3ccncc3)[nH]2)cc1 | % | -0.06 |
| NC(=O)c1cccc(Nc2nccc(Nc3cccc4[nH]ncc34)n2)c1 | % | -0.9 |

----------
Molecular target: Tyrosine-protein kinase Lyn (Homo sapiens);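 also: mean percent inhibition of the LYN A splice variant of the kinase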
Settings: at 1 µM
Description: GSK_PKIS: LYN A (splice variant) mean inhibition at 1 uM [Nanosyn]

| Structure Smiles String | Measured On | inhibition [%] |
| --- | --- | --- |
| COc1cccc(-n2ncc3c(N/N=C/c4cccc(F)c4)ncnc32)c1 | Tyrosine-protein kinase Lyn (Homo sapiens) | 55.9 |
| O=C1Nc2ccc(C(=O)c3ccco3)cc2C1=Cc1cc(Cl)c(O)c(Cl)c1 | Tyrosine-protein kinase Lyn (Homo sapiens) | 18.9 |
| O=C1NC(=O)C(c2ccccc2Cl)=C1Nc1cccc(O)c1 | Tyrosine-protein kinase Lyn (Homo sapiens) | 3.94 |
| CCn1c(-c2nonc2N)nc2cncc(C(=O)N3CCNCC3)c21 | Tyrosine-protein kinase Lyn (Homo sapiens) | 5.94 |
| CCn1c(-c2nonc2N)nc2c(C#CC(C)(C)O)nc(CN3CCCC3)cc21 | Tyrosine-protein kinase Lyn (Homo sapiens) | 0.2 |
| COc1cc2ncn(-c3cc(OCc4ccccc4C(F)(F)F)c(C(N)=O)s3)c2cc1OC | Tyrosine-protein kinase Lyn (Homo sapiens) | 21.5 |
| O=C(Nc1n[nH]c2nc(-c3ccco3)c(Br)cc12)C1CC1 | Tyrosine-protein kinase Lyn (Homo sapiens) | 4.24 |

----------
Target: Dual specificity tyrosine-phosphorylation-regulated kinase 2 (Homo sapiens) (UniProt Q92630);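 also: values are mean percent inhibition of DYRK2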
Sequence (Q92630 whole entry): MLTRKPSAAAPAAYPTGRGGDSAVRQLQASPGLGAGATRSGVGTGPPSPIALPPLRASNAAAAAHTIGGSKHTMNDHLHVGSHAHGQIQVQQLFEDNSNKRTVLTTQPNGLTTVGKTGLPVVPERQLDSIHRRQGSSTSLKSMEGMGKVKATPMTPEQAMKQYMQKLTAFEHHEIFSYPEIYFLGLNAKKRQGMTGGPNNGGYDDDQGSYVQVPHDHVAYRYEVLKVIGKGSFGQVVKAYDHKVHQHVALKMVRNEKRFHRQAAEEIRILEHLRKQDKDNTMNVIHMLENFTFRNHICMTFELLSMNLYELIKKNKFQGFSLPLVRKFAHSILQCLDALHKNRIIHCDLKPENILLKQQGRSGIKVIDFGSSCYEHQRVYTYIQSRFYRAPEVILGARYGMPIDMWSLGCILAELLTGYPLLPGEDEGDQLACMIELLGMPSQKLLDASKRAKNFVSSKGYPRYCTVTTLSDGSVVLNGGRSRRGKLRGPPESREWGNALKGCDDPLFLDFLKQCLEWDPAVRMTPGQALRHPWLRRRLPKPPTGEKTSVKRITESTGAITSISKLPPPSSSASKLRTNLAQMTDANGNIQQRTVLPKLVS
Details: at 0.1 µM
Observation Type: inhibition (%)

| Compound | Observation Type | Reading |
| --- | --- | --- |
| COC(=O)Nc1nc2cc(Oc3cccc(NC(=O)Nc4cc(C(F)(F)F)ccc4F)c3)ccc2[nH]1 | inhibition | -0.32 |
| COc1cc(C=NNc2ncnc3c2cnn3-c2ccccc2)ccc1O | inhibition | 5.08 |
| COc1cc2ncn(-c3cc(O[C@H](C)c4ccccc4Cl)c(C(N)=O)s3)c2cc1OC | inhibition | 2.5 |
| CCCN1CCC(Oc2cc(Nc3nc(Nc4cccc(F)c4C(N)=O)c4cc[nH]c4n3)c(OC)cc2Cl)CC1 | inhibition | -0.2 |
| COc1ccc(-c2coc3ncnc(N)c23)cc1 | inhibition | 3.83 |
| Cc1nnc(-c2ccc(C)c(-c3ccc(C(=O)Nc4cccc(C#N)c4)cc3)c2)o1 | inhibition | 1.13 |
| CC(C)=Cc1cccc2c1/C(=N/Nc1ccc(S(N)(=O)=O)cc1)C(=O)N2 | inhibition | 0.58 |
| CS(=O)(=O)CCNCc1nc(-c2ccc3ncnc(Nc4ccc(F)c(Cl)c4)c3c2)cs1 | inhibition | 0.37 |
| COc1cc(C)c(NC(=O)CN(C)C)cc1Nc1nc(Nc2cccc(F)c2C(N)=O)c2cc[nH]c2n1 | inhibition | 2.4 |
| COc1cc2ncn(-c3cc(OCc4ccccc4Cl)c(C(N)=O)s3)c2cc1OC | inhibition | 0.19 |
| CCn1c(-c2nonc2N)nc2cnc(Oc3cccc(NC(=O)c4ccc(OCCN5CCOCC5)cc4)c3)cc21 | inhibition | 3.68 |
| COc1cc2ncn(-c3cc(O[C@@H](C)c4ccccc4Cl)c(C(N)=O)s3)c2cc1OC | inhibition | 2.62 |
| NC(=O)c1cccc(Nc2nccc(Nc3cccc4[nH]ncc34)n2)c1 | inhibition | -1.74 |
| Nc1ncnc2occ(-c3ccc(NC(=O)Nc4cccc(C(F)(F)F)c4)cc3)c12 | inhibition | 3.2 |
| N#Cc1c(NC(=O)c2cccc3ccccc23)sc2c1CCCC2 | inhibition | 1.86 |
| Cc1ccc(NC(=O)c2ccnc(N3CCCC3)c2)cc1-c1ccc(C(=O)NCC2CC2)cc1 | inhibition | 2.77 |
| CN1CCC(C(=O)Nc2n[nH]c3nnc(-c4ccccc4)cc23)CC1 | inhibition | 4.83 |
| NS(=O)(=O)c1ccc(N/N=C2\C(=O)Nc3ccc(C(=O)NCCc4c[nH]cn4)cc32)cc1 | inhibition | 6.85 |
| NC(=O)c1ccc(-c2nc(-c3ccccn3)c(-c3ccc4c(c3)OCO4)[nH]2)cc1 | inhibition | 1.43 |
| Nc1nc(-c2ccccn2)c(-c2ccc3ncccc3n2)s1 | inhibition | 2.04 |
| Cc1ccc(C(=O)NC2CCCCC2)cc1-c1ccc(C(=O)NCC2CC2)cc1 | inhibition | 1.77 |
| CCn1c(-c2nonc2N)nc2cncc(C(=O)N3CCNCC3)c21 | inhibition | 4.35 |
| COc1cc2ncn(-c3cc(OCc4ccccc4C(F)(F)F)c(C(N)=O)s3)c2cc1OC | inhibition | 1.73 |
| NS(=O)(=O)c1cccc(-c2ccc3c(NC(=O)C4CC4)n[nH]c3c2)c1 | inhibition | -1.18 |
| O=C1NC(=O)C(c2ccccc2Cl)=C1Nc1cccc(O)c1 | inhibition | 3.09 |
| Nc1nc(-c2ccc3c(c2)C(=Cc2cc(Br)c(O)c(Br)c2)C(=O)N3)cs1 | inhibition | -2.46 |
| COc1ccc(-c2nn3ncccc3c2-c2ccnc(Nc3ccc(Cl)c(C(F)(F)F)c3)n2)cc1 | inhibition | 1.06 |
| Cc1cc(O)cc(C)c1/C=C/c1cncc(-c2nn[nH]n2)c1 | inhibition | 2.24 |
| O=C1NC(=O)C(c2cccc(Cl)c2)=C1Nc1ccc(O)c(Cl)c1 | inhibition | 1 |
| CS(=O)(=O)CCNCc1ccc(-c2ccc3ncnc(Nc4ccc(OCc5ccccc5)c(Cl)c4)c3c2)o1 | inhibition | -0.23 |
| CC1=C(C(=O)Nc2ccc3[nH]ncc3c2)C(c2ccc(Cl)c(Cl)c2)CC(=O)N1 (configuration not stated) | inhibition | 1.35 |
| CCn1c(-c2nonc2N)nc2ccncc21 | inhibition | 1.94 |

----------
Target: Serine/threonine-protein kinase Nek1 (Homo sapiens) (UniProt Q96PY6);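 also: mean percent inhibition of NEK1 kinase, from the GSK PKIS (published kinase inhibitor set) screening panel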
Sequence (whole entry): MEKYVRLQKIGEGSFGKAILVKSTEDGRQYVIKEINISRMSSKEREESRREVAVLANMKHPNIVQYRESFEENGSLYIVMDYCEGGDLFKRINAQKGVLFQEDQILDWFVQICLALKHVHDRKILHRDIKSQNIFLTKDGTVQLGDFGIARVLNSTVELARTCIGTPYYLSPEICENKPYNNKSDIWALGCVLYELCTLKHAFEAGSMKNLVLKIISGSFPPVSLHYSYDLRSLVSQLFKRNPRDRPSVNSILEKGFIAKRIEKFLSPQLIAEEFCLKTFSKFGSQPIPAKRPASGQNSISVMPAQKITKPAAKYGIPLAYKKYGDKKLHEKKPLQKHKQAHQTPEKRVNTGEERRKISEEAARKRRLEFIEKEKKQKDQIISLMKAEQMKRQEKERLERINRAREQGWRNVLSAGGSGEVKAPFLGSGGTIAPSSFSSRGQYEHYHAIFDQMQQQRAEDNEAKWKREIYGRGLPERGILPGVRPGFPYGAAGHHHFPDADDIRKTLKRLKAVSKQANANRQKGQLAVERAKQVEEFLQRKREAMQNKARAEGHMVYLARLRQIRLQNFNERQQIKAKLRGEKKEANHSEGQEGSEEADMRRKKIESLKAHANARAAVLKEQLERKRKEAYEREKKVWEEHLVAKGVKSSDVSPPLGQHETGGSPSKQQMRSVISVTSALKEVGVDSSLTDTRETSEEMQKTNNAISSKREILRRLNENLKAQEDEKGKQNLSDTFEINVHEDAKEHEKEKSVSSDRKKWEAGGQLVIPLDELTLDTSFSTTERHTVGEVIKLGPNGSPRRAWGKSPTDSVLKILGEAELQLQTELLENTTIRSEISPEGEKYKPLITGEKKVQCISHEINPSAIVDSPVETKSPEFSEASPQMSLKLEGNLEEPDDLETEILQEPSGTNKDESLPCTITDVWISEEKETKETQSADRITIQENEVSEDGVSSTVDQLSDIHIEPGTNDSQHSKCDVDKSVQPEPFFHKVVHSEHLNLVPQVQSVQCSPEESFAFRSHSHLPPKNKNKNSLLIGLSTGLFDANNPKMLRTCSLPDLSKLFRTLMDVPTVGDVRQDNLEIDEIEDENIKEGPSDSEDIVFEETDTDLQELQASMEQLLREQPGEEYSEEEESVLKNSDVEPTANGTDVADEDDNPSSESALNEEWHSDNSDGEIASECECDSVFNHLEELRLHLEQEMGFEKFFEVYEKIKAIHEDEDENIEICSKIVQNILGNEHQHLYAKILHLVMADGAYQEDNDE
Details: at 0.1 µM
Observation Type: inhibition (%)

| Compound | Reading |
| --- | --- |
| Fc1cccc(COc2ccc(Nc3ncnc4cc(-c5ccc[nH]5)sc34)cc2Cl)c1 | 1.42 |
| CNC(=O)c1cncc(/C=C/c2c(Cl)cccc2Cl)c1 | 2.78 |
| COc1cc2ncn(-c3cc(OCc4ccccc4C(F)(F)F)c(C(N)=O)s3)c2cc1OC | 3.95 |
| CCCN1CCC(Oc2cc(Nc3nc(Nc4cccc(F)c4C(N)=O)c4cc[nH]c4n3)c(OC)cc2Cl)CC1 | 0.59 |
| Cc1nn(C)c2cc(N(C)c3ccnc(Nc4cccc(S(N)(=O)=O)c4)n3)ccc12 | 2.28 |
| Cc1ccc(C(=O)NC2CCCCC2)cc1-c1ccc(C(=O)NCC2CC2)cc1 | 1.91 |
| [O-][S+]1CCN(Cc2ccc(-c3ccc4ncnc(Nc5ccc(OCc6ccccc6)c(F)c5)c4c3)o2)CC1 | 1.95 |
| CS(=O)(=O)Nc1ccc(N/C=C2\C(=O)Nc3ccccc32)cc1 | -1.43 |
| CN1CCC(C(=O)Nc2n[nH]c3nnc(-c4ccccc4)cc23)CC1 | 2.01 |
| CCCN1CCC=C(c2ccc(Nc3nc(Nc4ccccc4C(N)=O)c4cc[nH]c4n3)c(C)c2)C1 | 3.93 |
| Cc1ccc(NC(=O)c2ccnc(N3CCCC3)c2)cc1-c1ccc(C(=O)NCC2CC2)cc1 | 2.74 |
| Cc1cc(O)cc(C)c1/C=C/c1cncc(-c2nn[nH]n2)c1 | 3.13 |
| CCn1c(-c2nonc2N)nc2c(C#CC(C)(C)O)nc(OC[C@@H](N)c3ccccc3)cc21 | 0.04 |
| COC(=O)Nc1nc2cc(Oc3cccc(NC(=O)Nc4cc(C(F)(F)F)ccc4F)c3)ccc2[nH]1 | -0.22 |
| CC1=C(C(=O)Nc2ccc3[nH]ncc3c2)C(c2ccc(Cl)c(Cl)c2)CC(=O)N1 (stereo not drawn) | 0.09 |
| COc1ccc(-c2ccncc2)cc1C(N)=O | 3.59 |
| CCn1c(-c2nonc2N)nc2ccncc21 | 1.01 |
| N#Cc1c(NC(=O)c2cccc3ccccc23)sc2c1CCCC2 | 1.19 |
| O=C1NC(=O)C(c2cccc(Cl)c2)=C1Nc1ccc(O)c(Cl)c1 | 0.25 |
| COc1cc2c(cc1Nc1nc(N3CCc4ccccc43)c3cc[nH]c3n1)N(C(=O)CN(C)C)CC2 | 1.31 |
| NC(=O)c1ccc(-c2nc(-c3ccccn3)c(-c3ccc4c(c3)OCO4)[nH]2)cc1 | 1.34 |
| Cn1cc(C=C2C(=O)Nc3cccnc32)c2ccccc21 | 2.09 |
| CCn1c(-c2nonc2N)nc2cnc(Oc3cccc(NC(=O)c4ccc(OCCN5CCOCC5)cc4)c3)cc21 | 1.53 |
| COc1ccccc1Nc1ncc(-c2ccccc2)o1 | 3.62 |
| COc1cccc(-n2ncc3c(N/N=C/c4cccc(F)c4)ncnc32)c1 | 2.19 |
| CCn1c(-c2nonc2N)nc2c(C#CC(C)(C)O)nc(CN3CCCC3)cc21 | 0.5 |
| O=C1NC(=O)C(c2ccc(Cl)cc2)=C1Nc1ccc(Cl)c(C(=O)O)c1 | -0.84 |
| NS(=O)(=O)c1ccc(N/N=C2\C(=O)Nc3ccc(C(=O)NCCc4c[nH]cn4)cc32)cc1 | 2.19 |
| COC(=O)Nc1nc2cc(Oc3ccc(NC(=O)Nc4cccc(C(=O)O)c4)cc3)ccc2[nH]1 | 0.04 |
| CS(=O)(=O)CCNCc1ccc(-c2ccc3ncnc(Nc4ccc(OCc5cccc(F)c5)c(C(F)(F)F)c4)c3c2)o1 | 2.28 |
| COc1cc2ncn(-c3cc(O[C@H](C)c4ccccc4Cl)c(C(N)=O)s3)c2cc1OC | 29.8 |
| CN(C)c1cc2c(Nc3ccc4nc(Cc5ccccc5)[nH]c4c3)ncnc2cn1 | 2.45 |
| O=C1Nc2ccc(C(=O)c3ccco3)cc2C1=Cc1cc(Cl)c(O)c(Cl)c1 | 1.66 |
